These measurements were taken from PubChem BioAssay AID686978.

Assay method text: qHTS for Inhibitors of human tyrosyl-DNA phosphodiesterase 1 (TDP1): qHTS in cells in absence of CPT; also: nearly all actives have a fitted effect of over 55% in size; also: potency is read from the fitted curve at half-maximal effect
Study conditions: DT40 Tdp1-/- hTDP1 cells, no CPT, ATP luminescence, 48 h
Out of some 420,000 compounds screened, about 64,000 (15%) were called active. Not shown: some 27% with an inconclusive outcome. A selection follows.
Quantity kind: Potency

Example compounds with recorded Potency:
>  <Compound>
O=P(O)(O)C(O)c1ccc2ccccc2c1 (stereo not drawn)

>  <Potency>
inactive

$$$$
>  <Compound>
COc1ccc(NC(=S)NCCNC(C)=O)cc1

>  <Potency>
inactive

$$$$
>  <Compound>
Cc1cc([N+](=O)[O-])c(NC2CCCCC2)c([N+](=O)[O-])c1

>  <Potency>
inactive

$$$$
>  <Compound>
CCc1nnc(NC(=O)C2CCN(C(=O)c3ccccc3C)CC2)s1

>  <Potency>
inactive

$$$$
>  <Compound>
CCC(=O)c1ccc(OCC(=O)OCC(=O)NC2CCCCCC2)cc1

>  <Potency>
inactive

$$$$

Batch of 8 compounds: report Potency for each.
1. Cn1c(CC(=O)Nc2ccc(F)cc2)nnc1SCC(=O)NC1CCCCC1
2. CCN(CC)S(=O)(=O)c1ccc2c3c(cccc13)C(=O)S2
3. Cc1cccc(OCC(=O)N(Cc2ccc(C(C)C)cc2)Cc2ccco2)c1C
4. Oc1ccc(Cl)c2c1CCC2
5. Nc1nc(NCc2ccccc2)n(-c2ccccc2)n1
6. Cc1ccccc1C(=O)N1CCC(C(=O)Oc2ccc(C#N)cc2)CC1
7. COc1ccc(NS(=O)(=O)c2ccc(C)c(C(=O)N(C)Cc3ccc(OC)cc3OC)c2)cc1
8. CN(Cc1ccc(CNC[C@H]2O[C@@H](n3cnc4c(N)ncnc43)[C@H](O)[C@@H]2O)o1)S(C)(=O)=O

Result block:
1. inactive
2. inactive
3. 20.6 µM (active)
4. inactive
5. inactive
6. inactive
7. 18.4 µM (active)
8. inactive

For each entry beneath this line, provide reported Potency.
1. Cc1cccc(OCc2nnc(SCC(=O)N3CCN(C(=O)c4ccco4)CC3)n2C)c1C
2. Cc1ccnc(NC(=O)CCC(=O)N(CC(=O)NCc2ccccc2)Cc2ccco2)c1
3. COCCCN1C(=O)c2ccc(C(=O)OCC(=O)NCc3ccccc3OC)cc2C1=O

Result block:
inactive
inactive
inactive

Below are some compounds; for each one, tell me its Potency.
1. O=C(CSc1ncccn1)N1CCCC1
2. Cc1cc(C)n2c(NCc3ccccc3)c(CC(C)C)nc2n1
3. O=C(CCCOc1ccccc1)NCc1ccco1

Result block:
1. inactive
2. 23.1 µM (active)
3. inactive

====

Assay method text: qHTS for Inhibitors of human tyrosyl-DNA phosphodiesterase 1 (TDP1): qHTS in cells in absence of CPT; also: nearly all actives have a fitted effect of over 55% in size
Study conditions: DT40 Tdp1-/- hTDP1 cells, no CPT, ATP luminescence, 48 h
Method: Human tyrosyl-DNA phosphodiesterase 1 (TDP1) is a novel repair gene, and we propose to use it as a new target for anticancer drug development. […] For the primary screen, Tdp1-/-;hTDP1 cells will be exposed to small molecules in the presence or absence of CPT, and their growth kinetics will be evaluated after 48 hours by measuring ATP activity. […] The hit compounds will then be evaluated in the presence or absence of CPT using Tdp1-/- cells. […]
About 64,000 (15%) of roughly 420,000 compounds were called active. Not shown: some 27% with an inconclusive outcome. Calls come from the whole dose curve; as a rule, active = well fitted inhibition curve with a large enough effect; inconclusive = small, poorly fitted or top-dose-only effect; inactive = flat fitted curve, though single readings scatter. A selection follows.
The categories you may choose from are YES (active), NO (inactive)

As a guide, the following entries are already answered.
>  <Molecule>
CCCC(=O)NC(=S)Nc1ccc(CN2CCOCC2)cc1

>  <Assigned class>
NO

$$$$
>  <Molecule>
O=C(c1ccccc1)N1CCN(c2ccc([N+](=O)[O-])c(NCc3ccco3)c2)CC1

>  <Assigned class>
YES

$$$$

Query block: Would you mind telling me which call this test gave `O=C(CCCN=C1NS(=O)(=O)c2ccccc21)OCC(=O)c1ccc(F)c(F)c1` ?
Result block: NO

Query block: I'd appreciate the recorded outcome for `COc1ccc(CCNc2cc(N3CCN(C(=O)c4ccccc4OC)CC3)ccc2[N+](=O)[O-])cc1OC` from this test.
Result block: YES

Query block: Kindly provide the recorded test outcome for the following molecule: CCCCC(O)C1=C[N+](=O)CC=C1 (configuration not stated)
Result block: NO

Query block: GET /call?item= `O=C(NNc1ccccc1Cl)C(O)(c1cccc(C(F)(F)F)c1)c1cccc(C(F)(F)F)c1` returns the recorded outcome of this test.
Result block: YES

Query block: Could you kindly confirm the outcome this assay logged for `CO[C@H]1[C@@H](O)[C@H](N)[C@@H](O[C@H]2O[C@H]([C@H](C)N)CC[C@H]2N)[C@H](O)[C@@H]1N(C)C(=O)CN` ?
Result block: NO

Query block: Any idea what this test logged for `Cc1noc(C)c1CSCC(=O)Nc1ccc(Br)cc1Cl` ?
Result block: YES

Query block: # outcome recorded in this test, key = `Cc1ccc(OC(=O)c2cc3ccccc3o2)cc1`
Result block: NO

====

Assay method text: qHTS for Inhibitors of human tyrosyl-DNA phosphodiesterase 1 (TDP1): qHTS in cells in absence of CPT; also: nearly all actives have a fitted effect of over 55% in size
Study conditions: DT40 Tdp1-/- hTDP1 cells, no CPT, ATP luminescence, 48 h
Among all 420,000 compounds or so, about 64,000 (15%) were called active. Another 27% or so got no clear call; they are omitted. Calls come from the whole dose curve; as a rule, active = well fitted inhibition curve with a large enough effect; inconclusive = small, poorly fitted or top-dose-only effect; inactive = flat fitted curve, though single readings scatter. These entries were drawn from the full list.
Returns: one label drawn from active, inactive

>  <Compound>
O=C(OCc1cn([C@@H]2C[C@H](c3ccc(Cl)cc3)N(Cc3cccs3)C[C@H]2O)nn1)c1ccccc1

>  <Assigned class>
inactive

$$$$
>  <Compound>
Cc1ccc(-n2nc(CO)c(C(=O)NCCc3ccccc3)n2)cc1

>  <Assigned class>
inactive

$$$$

Turning now to a further compound:
Query block: Returns: the outcome recorded for `CCCc1cc(=O)[nH]c(SCc2ccc(C#N)cc2)n1` in this assay.
Result block: inactive

====

Assay method text: qHTS for Inhibitors of human tyrosyl-DNA phosphodiesterase 1 (TDP1): qHTS in cells in absence of CPT; also: nearly all actives have a fitted effect of over 55% in size
Study conditions: DT40 Tdp1-/- hTDP1 cells, no CPT, ATP luminescence, 48 h
In all, about 420,000 compounds went through this assay and about 64,000 (15%) were called active. Roughly 27% stayed inconclusive and do not appear here. Calls come from the whole dose curve; as a rule, active = well fitted inhibition curve with a large enough effect; inconclusive = small, poorly fitted or top-dose-only effect; inactive = flat fitted curve, though single readings scatter. A selection follows.
Your answer must be one of the following: active, inactive

>  <Compound>
CCN(Cc1ccccc1)C(=O)CSc1nc(C)cc2c1C(=O)OC2

>  <Assigned class>
inactive

$$$$
>  <Compound>
COCCCn1c(SCC(=O)Nc2oc(C)c3c(C)n[nH]c(=O)c23)nc2sc3c(c2c1=O)CCC3

>  <Assigned class>
inactive

$$$$
>  <Compound>
Cc1ccc(SC(=O)COc2ccc(C)c(C)c2)cc1

>  <Assigned class>
inactive

$$$$

Query block: What classification did CC1Oc2ccccc2N(Cc2cccnc2)C1=O (centres undefined) end up with in this test?
Result block: inactive

Query block: Entry `CCc1c(C)nc2c(OC)cccc2c1Cl` : call = ?
Result block: inactive

Query block: Look up the recorded call for `Cc1ccc(S(=O)(=O)N2CCc3cc(C(=O)Nc4ccc(Cl)cc4C)ccc32)cc1` in this test.
Result block: inactive

Query block: Just curious, what result did `COc1ccc(C(=O)NC(=S)Nc2ccc(N3CCCC3)cc2)cc1OC` get here?
Result block: active

Query block: # outcome recorded in this test, key = `COc1ccccc1C(=O)NC(=S)NC12CC3CC(CC(C3)C1)C2`
Result block: inactive

Query block: Hello, I am checking results. What call was entered for CCc1c(C)c2ccc(OC3CCCCC3=O)cc2oc1=O (centres undefined) ?
Result block: inactive

Query block: Which outcome did this test record for the compound `CCc1nnc(NC(=O)CSc2nnnn2-c2cccc(C(C)=O)c2)s1` ?
Result block: inactive

====

Assay method text: qHTS for Inhibitors of human tyrosyl-DNA phosphodiesterase 1 (TDP1): qHTS in cells in absence of CPT; also: nearly all actives have a fitted effect of over 55% in size
Study conditions: DT40 Tdp1-/- hTDP1 cells, no CPT, ATP luminescence, 48 h
The campaign covered roughly 420,000 compounds. About 64,000 (15%) were called active. Inconclusive results (about 27%) are left out. The call rests on the fitted dose curve; in most records, active means well fitted inhibition curve with a large enough effect; inconclusive means small, poorly fitted or top-dose-only effect; inactive means flat fitted curve, though single readings scatter. Only a sample is shown.
Log the outcome using a class from 1 (yes) for active, 0 (no) for inactive

# count of solved cases: 8
>  <Molecule>
Cc1ccc(C(=O)CSc2nc3ccccc3c(=O)n2N)o1

>  <Assigned class>
0 (no)

$$$$
>  <Molecule>
C=CCn1c(SCc2ccc(C(=O)NCCO)cc2)nc2ccccc2c1=O

>  <Assigned class>
0 (no)

$$$$
>  <Molecule>
COCC(C)n1c(C)cc(C(=O)CSc2cc(C)c3ccccc3n2)c1C (stereo unspecified)

>  <Assigned class>
1 (yes)

$$$$
>  <Molecule>
Cc1ccc(-c2cc(-c3coc4ccccc4c3=O)c3c(n2)-c2cc(Cl)ccc2OC3)cc1

>  <Assigned class>
0 (no)

$$$$
>  <Molecule>
O=C(NCc1ccc2c(c1)OCO2)c1sccc1Br

>  <Assigned class>
0 (no)

$$$$
>  <Molecule>
Cc1ccc(Cc2cnc(N)s2)o1

>  <Assigned class>
0 (no)

$$$$
>  <Molecule>
O=C(NCc1ccc2c(c1)OCO2)c1ccc(Cl)s1

>  <Assigned class>
0 (no)

$$$$
>  <Molecule>
O=C(NCc1ccc2c(c1)OCO2)c1c(-c2ccsc2)sc2ccccc12

>  <Assigned class>
1 (yes)

$$$$

Query block: State the result this test recorded for COc1ccc2c(C)cc(SCC(=O)NCC3CCCO3)nc2c1 (stereo unspecified) .
Result block: 0 (no)

Query block: Per the records of this test, what outcome belongs to `Cc1ccc(CCC(=O)Nc2ncc(Cc3cc(Cl)ccc3Cl)s2)o1` ?
Result block: 1 (yes)

Query block: Hey, what did the test say about COCC(C)n1c(SCc2ccc(C(=O)OC)o2)nc2ccccc2c1=O (stereo unspecified) ?
Result block: 1 (yes)
